Values were extracted from the supplement of paper PMC12667976.

B1: library; numbered along this chain (parent)
chain: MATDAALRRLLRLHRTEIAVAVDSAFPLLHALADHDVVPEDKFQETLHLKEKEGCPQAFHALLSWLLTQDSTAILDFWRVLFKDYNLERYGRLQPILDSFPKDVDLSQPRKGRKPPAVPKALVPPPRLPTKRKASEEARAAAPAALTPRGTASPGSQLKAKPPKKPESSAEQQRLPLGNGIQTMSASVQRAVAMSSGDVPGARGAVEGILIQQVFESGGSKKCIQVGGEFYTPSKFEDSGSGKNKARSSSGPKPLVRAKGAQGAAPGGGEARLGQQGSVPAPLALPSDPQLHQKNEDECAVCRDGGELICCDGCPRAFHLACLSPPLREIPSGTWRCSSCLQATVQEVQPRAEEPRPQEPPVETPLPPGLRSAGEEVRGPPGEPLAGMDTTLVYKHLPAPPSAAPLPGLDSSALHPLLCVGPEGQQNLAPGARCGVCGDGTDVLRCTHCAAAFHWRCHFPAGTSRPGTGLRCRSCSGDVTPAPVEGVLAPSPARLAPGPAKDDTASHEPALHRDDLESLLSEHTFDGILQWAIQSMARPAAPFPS

Variants of: B1
Assay: AIRE transcriptional activation functional score (insulin promoter-GFP; nonsense median 0, synonymous median 1) (normalised score); higher = higher AIRE activity (more reporter activation)
Details: with insulin promoter-GFP reporter in HEK293
assayMetric: AIRE transcriptional activation functional score

q: Specify reported AIRE transcriptional activation functional score for the variant shown: G54Y
a: 0.671

q: Specify reported AIRE transcriptional activation functional score for the variant shown: K221M
a: 1.02

q: Specify reported AIRE transcriptional activation functional score for the variant shown: P357I
a: 1.11

q: Specify reported AIRE transcriptional activation functional score for the variant shown: Q212W
a: -0.0246

q: Specify reported AIRE transcriptional activation functional score for the variant shown: V80Y
a: 0.606

q: Specify reported AIRE transcriptional activation functional score for the variant shown: P350L
a: 1.17

q: Specify reported AIRE transcriptional activation functional score for the variant shown: P381F
a: 1.15

q: Specify reported AIRE transcriptional activation functional score for the variant shown: E136F
a: 0.605

q: Specify reported AIRE transcriptional activation functional score for the variant shown: K501Y
a: 0.863

q: Specify reported AIRE transcriptional activation functional score for the variant shown: S220L
a: 1.04

q: Specify reported AIRE transcriptional activation functional score for the variant shown: D503S
a: 0.908

q: Specify reported AIRE transcriptional activation functional score for the variant shown: K243N
a: 1.06

q: Specify reported AIRE transcriptional activation functional score for the variant shown: S239A
a: 1.2

q: Specify reported AIRE transcriptional activation functional score for the variant shown: A33F
a: 0.348

q: Specify reported AIRE transcriptional activation functional score for the variant shown: A540W
a: 0.41

q: Specify reported AIRE transcriptional activation functional score for the variant shown: L285Q
a: 1.22

q: Specify reported AIRE transcriptional activation functional score for the variant shown: L392I
a: 1.7

q: Specify reported AIRE transcriptional activation functional score for the variant shown: R79P
a: -0.266

q: Specify reported AIRE transcriptional activation functional score for the variant shown: A186I
a: -0.146

q: Specify reported AIRE transcriptional activation functional score for the variant shown: G208E
a: 0.502

q: Specify reported AIRE transcriptional activation functional score for the variant shown: R336P
a: 1.38

q: Specify reported AIRE transcriptional activation functional score for the variant shown: R445G
a: 0.978

q: Specify reported AIRE transcriptional activation functional score for the variant shown: L49M
a: 0.566

q: Specify reported AIRE transcriptional activation functional score for the variant shown: L370W
a: 0.504

q: Specify reported AIRE transcriptional activation functional score for the variant shown: R127T
a: 0.335

q: Specify reported AIRE transcriptional activation functional score for the variant shown: F100K
a: 0.809

q: Specify reported AIRE transcriptional activation functional score for the variant shown: G112I
a: 1.08

q: Specify reported AIRE transcriptional activation functional score for the variant shown: T364W
a: 1.73

q: Specify reported AIRE transcriptional activation functional score for the variant shown: R149N
a: 0.726

q: Specify reported AIRE transcriptional activation functional score for the variant shown: E88F
a: 0.0961
